Measurement description: Photophysical characterization of Eu complexes (UV-vis absorption, quantum yield, lifetime)
Type: physicochemical
Study conditions: TBS buffer, pH 7.6
Readout label: ε260/ε at λmax

- Compound: "NCCCC[C@H]1CNC(=O)c2ccc(c(=O)n2[O-])C(=O)NCCCN(C(=O)c2cccc(=O)n2[O-])CCCCN(C(=O)c2cccc(=O)n2[O-])CCCNC(=O)c2ccc(n([O-])c2=O)C(=O)N1.[Eu+3] [29⋅Eu]"
  ε260/ε at λmax: 1.42
- Compound: "O=C1NCCCN(C(=O)c2cccc(=O)n2O)CCCCN(C(=O)c2cccc(=O)n2O)CCCNC(=O)c2ccc(n(O)c2=O)C(=O)NCCNC(=O)c2ccc1c(=O)n2O [Compound 16]"
  ε260/ε at λmax: 1.98
- Compound: "O=C1NCCCN(C(=O)c2cccc(=O)n2[O-])CCCCN(C(=O)c2cccc(=O)n2[O-])CCCNC(=O)c2ccc(n([O-])c2=O)C(=O)N[C@@H]2COC[C@@H]2NC(=O)c2ccc1c(=O)n2[O-].[Eu+3] [40⋅Eu]"
  ε260/ε at λmax: 1.51
- Compound: "NCCOCCNC(=O)C1CCCN(C(=O)c2cccc(=O)n2[O-])CCCNC(=O)c2ccc(n([O-])c2=O)C(=O)NCCNC(=O)c2ccc(c(=O)n2[O-])C(=O)NCCCN1C(=O)c1cccc(=O)n1[O-].[Eu+3] (stereo not drawn) [33⋅Eu]"
  ε260/ε at λmax: 1.40
- Compound: "NCCOCCNC(=O)C1CCCN(C(=O)c2cccc(=O)n2[O-])CCCNC(=O)c2ccc(n([O-])c2=O)C(=O)NC2COCC2NC(=O)c2ccc(c(=O)n2[O-])C(=O)NCCCN1C(=O)c1cccc(=O)n1[O-].[Eu+3] (mixture of isomers) [43⋅Eu]"
  ε260/ε at λmax: 1.52
- Compound: "O=C1NCCCN(C(=O)c2cccc(=O)n2[O-])CCCCN(C(=O)c2cccc(=O)n2[O-])CCCNC(=O)c2ccc(n([O-])c2=O)C(=O)NCCNC(=O)c2ccc1c(=O)n2[O-].[Eu+3] [16⋅Eu]"
  ε260/ε at λmax: 1.40

* * *

Measurement description: Photophysical characterization of Eu complexes (UV-vis absorption, quantum yield, lifetime)
Assay type: physicochemical
Study conditions: TBS buffer, pH 7.6
Readout label: λmax (nm)

- Compound: "O=C1NCCCN(C(=O)c2cccc(=O)n2O)CCCCN(C(=O)c2cccc(=O)n2O)CCCNC(=O)c2ccc(n(O)c2=O)C(=O)NCCNC(=O)c2ccc1c(=O)n2O"
  Units of measure: "nm"
  Result value: 382
- Compound: "NCCCC[C@H]1CNC(=O)c2ccc(c(=O)n2[O-])C(=O)NCCCN(C(=O)c2cccc(=O)n2[O-])CCCCN(C(=O)c2cccc(=O)n2[O-])CCCNC(=O)c2ccc(n([O-])c2=O)C(=O)N1.[Eu+3]"
  Units of measure: "nm"
  Result value: 363
- Compound: "NCCOCCNC(=O)C1CCCN(C(=O)c2cccc(=O)n2[O-])CCCNC(=O)c2ccc(n([O-])c2=O)C(=O)NC2COCC2NC(=O)c2ccc(c(=O)n2[O-])C(=O)NCCCN1C(=O)c1cccc(=O)n1[O-].[Eu+3] (mixture of isomers)"
  Units of measure: "nm"
  Result value: 358
- Compound: "O=C1NCCCN(C(=O)c2cccc(=O)n2[O-])CCCCN(C(=O)c2cccc(=O)n2[O-])CCCNC(=O)c2ccc(n([O-])c2=O)C(=O)N[C@@H]2COC[C@@H]2NC(=O)c2ccc1c(=O)n2[O-].[Eu+3]"
  Units of measure: "nm"
  Result value: 357
- Compound: "NCCOCCNC(=O)C1CCCN(C(=O)c2cccc(=O)n2[O-])CCCNC(=O)c2ccc(n([O-])c2=O)C(=O)NCCNC(=O)c2ccc(c(=O)n2[O-])C(=O)NCCCN1C(=O)c1cccc(=O)n1[O-].[Eu+3] (stereo not drawn)"
  Units of measure: "nm"
  Result value: 363
- Compound: "O=C1NCCCN(C(=O)c2cccc(=O)n2[O-])CCCCN(C(=O)c2cccc(=O)n2[O-])CCCNC(=O)c2ccc(n([O-])c2=O)C(=O)NCCNC(=O)c2ccc1c(=O)n2[O-].[Eu+3]"
  Units of measure: "nm"
  Result value: 361
